system: T cell hybridoma 8-1.1α1; experiment: T cell hybridoma 8-1.1α1 response to B:9-23 peptide presented by I-A^g7; format: cell-based, mouse; details: Mus musculus, T-cell; with B:9-23 peptide (FIG. 2b); read-out: EC50 concentration, enhancement of TCR stimulation
OUTCOME MEASURE: EC50 (nM)

> print(dat)
                      test.smiles  outcome.measure  reading.unit  reading
1  O=C(O)CN(CP(=O)(O)O)CP(=O)(O)O             EC50            nM     70.6
